The reported numbers originate from the RNAGym collection of RNA variant scans (doi:10.1073/pnas.2313332121).

B1: TPR t1 (parent)
chain: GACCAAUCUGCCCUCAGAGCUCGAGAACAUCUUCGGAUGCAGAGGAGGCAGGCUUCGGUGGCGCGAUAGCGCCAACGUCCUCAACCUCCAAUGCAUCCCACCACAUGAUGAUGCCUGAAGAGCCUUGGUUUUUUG

variants of: B1; experiment: polymerase ribozyme fitness, log enrichment relative to wild type (log ratio); higher = more active; in vitro selection for triplet polymerase activity
Listed here are variants together with their documented polymerase ribozyme fitness (log ratio).

variant identifier: C73U G120C
polymerase ribozyme fitness (log ratio): 1.2

variant identifier: G47U G58U G120U
polymerase ribozyme fitness (log ratio): -1.02

variant identifier: G63C G110A
polymerase ribozyme fitness (log ratio): -1.89

variant identifier: C15A C49U G61A
polymerase ribozyme fitness (log ratio): -1.73

variant identifier: A43C U87C C89A A91U U92G G93C U125G
polymerase ribozyme fitness (log ratio): -4.91

variant identifier: G60C G128C
polymerase ribozyme fitness (log ratio): -2.73

variant identifier: C101U
polymerase ribozyme fitness (log ratio): -0.0389

variant identifier: G42A C70A C102U C114G U125A
polymerase ribozyme fitness (log ratio): -6.46

variant identifier: U14C A18G
polymerase ribozyme fitness (log ratio): -4.78

variant identifier: A43U G61U G93U
polymerase ribozyme fitness (log ratio): -1.76

variant identifier: G65C
polymerase ribozyme fitness (log ratio): -5.62
